Item-by-item account of IC50
target: AChE (Electrophorus electricus); construct: purchased Sigma-Aldrich; assay: biochemical
Sequence (O42275 24-633): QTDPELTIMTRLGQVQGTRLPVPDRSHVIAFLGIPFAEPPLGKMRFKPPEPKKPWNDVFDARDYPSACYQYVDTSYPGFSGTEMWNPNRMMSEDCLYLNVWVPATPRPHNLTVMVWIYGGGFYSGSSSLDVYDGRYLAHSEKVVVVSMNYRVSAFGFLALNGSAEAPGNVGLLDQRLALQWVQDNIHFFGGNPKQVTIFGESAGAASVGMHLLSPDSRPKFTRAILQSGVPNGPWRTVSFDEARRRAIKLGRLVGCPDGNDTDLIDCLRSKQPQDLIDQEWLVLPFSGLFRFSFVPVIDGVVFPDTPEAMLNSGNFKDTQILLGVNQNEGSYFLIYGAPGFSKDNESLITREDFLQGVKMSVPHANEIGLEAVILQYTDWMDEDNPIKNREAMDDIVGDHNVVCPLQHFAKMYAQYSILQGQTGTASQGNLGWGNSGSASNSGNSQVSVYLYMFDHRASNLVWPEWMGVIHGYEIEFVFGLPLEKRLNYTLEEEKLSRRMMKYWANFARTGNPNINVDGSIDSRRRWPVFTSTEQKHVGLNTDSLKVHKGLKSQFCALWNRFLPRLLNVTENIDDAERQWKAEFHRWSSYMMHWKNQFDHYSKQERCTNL

Example entries and their recorded answers appear below.
>>> experimental_value("Cc1cc(O)c2c(c1)C(=O)c1cc(O)cc(O)c1C2=O [Emodin (3), emodin]")
"77.6 µM"
>>> experimental_value("COc1cc(O)c2c(c1)C(=O)c1cc(C)cc(O)c1C2=O [Physcion (5), physcion]")
"76 µM"

// moving on: another record for IC50
Ask: Kindly indicate its recorded IC50. Item: Cc1cc(O)c2c(c1)C(=O)c1cccc(O)c1C2=O [Chrysophanol (4), chrysophanol]
Result: > 400 µM

----------
Item-by-item account of EC50
assay: Superoxide radical scavenging activity (NBT/PMS/NADH); details: isolated compounds (Table 5); read-out: SC50 Superoxide

>>> experimental_value("Cc1cc(O)c2c(c1)C(=O)c1cc(O)cc(O)c1C2=O")
"232 µM"
>>> experimental_value("Cc1cc(O)c2c(c1)C(=O)c1cccc(O)c1C2=O")
"> 200 µM"
>>> experimental_value("O=c1cc(-c2ccc(O)c(O)c2)oc2cc(O[C@@H]3O[C@H](CO)[C@@H](O)[C@H](O)[C@H]3O)cc(O)c12 [Cynaroside, reference compound]")
"20 µM"
>>> experimental_value("O=c1c(O)c(-c2ccc(O)c(O)c2)oc2cc(O)cc(O)c12")
"85.8 µM"
>>> experimental_value("COc1cc(O)c2c(c1)C(=O)c1cc(C)cc(O)c1C2=O")
"> 200 µM"

// moving on: another record for EC50
Ask: Kindly indicate its recorded EC50. Item: O=c1c(O)c(-c2ccc(O)cc2)oc2cc(O)cc(O)c12
Result: 271 µM
